test system: Plasmodium falciparum NF54-HGL (transmission to Anopheles stephensi); experiment: percentage of barcode signal found in uninfected mosquitoes (transmission-blocking activity); higher = stronger blocking of transmission to mosquito, active = 80 or more; conditions: 20 µM; gametocyte preincubation time 24 h; readout time post-feed 8 days
Consider the following compounds; for each one, report its percentage of barcode signal found in uninfected mosquitoes.
Please state the figure in %; there is no need to write the unit.

Ask | Need percentage of barcode signal found in uninfected mosquitoes, item `COc1ccc(-c2nnc3ccc(-c4cccc(C(C)C)c4)cn23)cc1OC`
Reply | 47.3

Ask | Need percentage of barcode signal found in uninfected mosquitoes, item `COc1cc(CN2CCC3(C=Cc4ccccc43)CC2)cc2c1OCO2`
Reply | 0.609

Ask | Need percentage of barcode signal found in uninfected mosquitoes, item `Cc1cc(OCC(=O)Nc2ccc(C(C)C)cc2)n(C)c(=O)c1C#N`
Reply | 35

---

tested on: Plasmodium falciparum NF54-HGL (transmission to Anopheles stephensi); test: percentage of barcode signal found in uninfected mosquitoes (transmission-blocking activity); higher = stronger blocking of transmission to mosquito, active = 80 or more; settings: 20 µM; gametocyte preincubation time 24 h; readout time post-feed 8 days
Consider the following compounds; for each one, report its percentage of barcode signal found in uninfected mosquitoes.
Please state the figure in %; there is no need to write the unit.

Ask | Need percentage of barcode signal found in uninfected mosquitoes, item `Cc1cc(NCC(C)C)c2n[nH]c(-c3ccccc3)c2n1`
Reply | 43

Ask | Need percentage of barcode signal found in uninfected mosquitoes, item `COc1cc(C(F)(F)F)nc2ccc(C)c(N)c12`
Reply | -0.0386

Ask | Need percentage of barcode signal found in uninfected mosquitoes, item `CC(C)(C)C(=O)N(CCCCCCN1C[C@H](O)[C@@H](O)[C@H](O)[C@H]1CO)C1CCCCCC1`
Reply | 17

---

test system: Plasmodium falciparum NF54-HGL (transmission to Anopheles stephensi); experiment: percentage of barcode signal found in uninfected mosquitoes (transmission-blocking activity); higher = stronger blocking of transmission to mosquito, active = 80 or more; settings: 20 µM; gametocyte preincubation time 24 h; readout time post-feed 8 days
Use one of these outcomes when replying: active, inactive

Ask | Please state the recorded outcome for this molecule: `Cn1ccnc1CNCCS(=O)(=O)c1cccc(Nc2ccc(-c3cccc(F)c3)cn2)c1`
Reply | inactive

Ask | Please state the recorded outcome for this molecule: CC1=Nc2ccc(Cl)cc2C(c2ccccc2)N1CCNC(=O)CN(C)C (centres undefined)
Reply | inactive

Ask | Please state the recorded outcome for this molecule: `C[C@H](C(N)=O)N1CCCC[C@@H]1c1ccc(OCc2cccc(F)c2)cc1`
Reply | inactive

Ask | Please state the recorded outcome for this molecule: `CCS(=O)(=O)N(Cc1ccco1)Cc1cc2ccc(C)cc2nc1O`
Reply | inactive

Ask | Please state the recorded outcome for this molecule: NCC(c1cccs1)S(=O)(=O)c1ccccc1 (centres undefined)
Reply | inactive

Ask | Please state the recorded outcome for this molecule: CC(=O)NCC1CN(c2ccc(-c3ccc(CNCc4cn[nH]n4)cc3)c(F)c2)C(=O)O1 (centres undefined)
Reply | inactive

Ask | Please state the recorded outcome for this molecule: CCc1ccccc1-n1c(C)cn2c3c(=O)n(C(C(=O)OC)C(C)C)c(=O)n(C)c3nc12 (centres undefined)
Reply | inactive

Ask | Please state the recorded outcome for this molecule: `Clc1ccc(Cl)c(CO[C@H]2CCCC[C@@H]2n2ccnc2)c1`
Reply | inactive

Ask | Please state the recorded outcome for this molecule: `O=C(Nc1nnc(S)s1)c1cc(Br)ccc1Cl`
Reply | inactive

Ask | Please state the recorded outcome for this molecule: `Cc1nn(C(=O)Nc2cccc(C(F)(F)F)c2)c(C)c1Sc1ncccn1`
Reply | inactive

Ask | Please state the recorded outcome for this molecule: `CC(C)(C)n1nc(Cc2ccc(F)c(Cl)c2)c2c(N)ncnc21`
Reply | inactive

Ask | Please state the recorded outcome for this molecule: `CCCCCCCCCCCCCCCCOP(=O)([O-])OCC[N+](C)(C)C`
Reply | inactive

Ask | Please state the recorded outcome for this molecule: `CCCn1c(NC(=O)c2ccc3ccccc3n2)nc2ccccc21`
Reply | inactive

Ask | Please state the recorded outcome for this molecule: `Cc1ccc(-c2cc(C(=O)Nc3cccnc3)c3cc(Br)ccc3n2)cc1`
Reply | inactive

Ask | Please state the recorded outcome for this molecule: CC(=O)NCC1CN(c2ccc(-c3ccc(CO)cc3)c(F)c2)C(=O)O1 (centres undefined)
Reply | inactive

Ask | Please state the recorded outcome for this molecule: CN1CCCN(C(c2ccccc2)c2ccc(Cl)cc2)CC1 (centres undefined)
Reply | inactive

Ask | Please state the recorded outcome for this molecule: `O=C(c1ccc(F)cc1)N(CCNc1ccccc1)c1ccccc1`
Reply | inactive

Ask | Please state the recorded outcome for this molecule: `c1ccc(Oc2ccc(-c3cc(N4CCNCC4)[nH]n3)cc2)cc1`
Reply | inactive

Ask | Please state the recorded outcome for this molecule: `CCCCN(CCCC)c1c(C#N)cc(S(=O)(=O)Nc2ccccc2)cc1C#N`
Reply | inactive

Ask | Please state the recorded outcome for this molecule: `Clc1cccc(CO[C@H]2CCc3ccccc3[C@@H]2n2ccnn2)c1`
Reply | inactive

Ask | Please state the recorded outcome for this molecule: `COc1cccc(-n2nnnc2S(C)(=O)=O)c1`
Reply | inactive

Ask | Please state the recorded outcome for this molecule: `O=C(C1CCN(c2cc(-n3cccc3)ncn2)CC1)N1CCc2ccccc2C1`
Reply | inactive

Ask | Please state the recorded outcome for this molecule: COc1ccc(CN2CCOc3ccc(C(C)(O)CN(C)C)cc3C2)cc1C (centres undefined)
Reply | inactive

Ask | Please state the recorded outcome for this molecule: `CCCCc1ccc(C(=O)Nc2nccc3ccccc23)nc1`
Reply | inactive

Ask | Please state the recorded outcome for this molecule: `CNC(=O)CNc1nc(-c2ccccn2)nc2scc(-c3ccccc3)c12`
Reply | inactive

Ask | Please state the recorded outcome for this molecule: `CC[P](CC)(CC)=[Au][S][C@H]1O[C@@H](COC(C)=O)[C@H](OC(C)=O)[C@@H](OC(C)=O)[C@@H]1OC(C)=O`
Reply | active

Ask | Please state the recorded outcome for this molecule: `CN1CCN(S(=O)(=O)c2ccc(-c3ccc4c(Nc5ccc6nn[nH]c6c5)ccnc4c3)cc2)CC1`
Reply | inactive

Ask | Please state the recorded outcome for this molecule: `N#CCN(CCCCN1CCN(c2ccc(F)cc2)CC1)C(=O)OCc1ccccc1`
Reply | inactive

Ask | Please state the recorded outcome for this molecule: `COc1ccc(CCN2CCC(NCc3cccc(N(C)C)c3)CC2)cc1`
Reply | active

Reference source for all entries: the supplement of paper PMC8726507
